system: COLO 205 colon; test: NCI tumour cell line growth inhibition, 48 h

{"columns": ["Molecule", "TGI"],
 "data": [
  ["C=CCNC(=O)C(C)C1CCC2(C)C=CC(=O)C(C)=C2C1O (stereo not given)", "> 100 µM"],
  ["COc1cc(OC)c(OC)cc1/C=C/c1nc2ccccc2s1", "> 100 µM"],
  ["Cc1ccc(N=N/C(=N/NC(=O)c2ccccc2)c2ccc(N(CCC#N)CCC#N)cc2C)cc1", "> 100 µM"],
  ["CC(=O)Oc1ccc(C2=Cc3ccc(OC(C)=O)cc3OC2C)cc1 (stereo not given)", "> 100 µM"],
  ["O=C(COc1ccc(/C=C2\\Oc3ccccc3C2=O)cc1)Nc1nc2ccccc2s1", "> 89.8 µM"],
  ["O=c1cc(Nc2cccc(O)c2)[nH]c(=O)[nH]1", "> 100 µM"],
  ["Cc1c(C)c2c(c(N)c1C#N)C(=O)N(Cc1ccc(S(N)(=O)=O)cc1)C2=O", "> 100 µM"],
  ["NC1=NC(Cn2nc(-c3ccccc3)c3ccccc3c2=O)=NNC(=O)N1", "> 100 µM"],
  ["O=[N+]([O-])c1ccc(-c2ccc(C3=Nn4c(CNc5ccccc5Cl)nnc4SC3)o2)cc1", "> 100 µM"],
  ["CC(=O)OC1COC(N2CCc3cc([N+](=O)[O-])ccc32)C(OC(C)=O)C1OC(C)=O (stereo not given)", "> 100 µM"]
]}
